# experimental-system: Neuronal acetylcholine receptor; alpha9/alpha10 (Homo sapiens) (UniProt Q9UGM1+Q9GZZ6)
# method-notes: Antagonist activity at alpha9/alpha10 nAChR expressed in Xenopus oocyte assessed as inhibition of ACh-gated current response at 100 nM by voltage clamp electrophysiology assay
# Assay type: functional
# Parameters: scale not given: the % may be the effect or the level left
measurement-type: Activity (%)
Please state the figure in %; there is no need to write the unit.

Answered cases to consult:
Cc1cc[n+](CCCCCc2ccccc2CCCCC[n+]2ccc(C)c(C)c2)cc1C ... 72
C(#Cc1cc(C#CCCC[n+]2cccc3ccccc32)cc(C#CCCC[n+]2cccc3ccccc32)c1)CCC[n+]1cccc2ccccc21 ... 10.5
Cc1cc[n+](CC#Cc2ccc(-c3ccc(C#CC[n+]4ccc(C)c(C)c4)cc3)cc2)cc1C ... 8.1
c1cc(CCCCC[n+]2ccc3ccccc3c2)cc(CCCCC[n+]2ccc3ccccc3c2)c1 ... 37.5
C(#Cc1cc(C#CCCC[n+]2cccc(-c3ccccc3)c2)cc(C#CCCC[n+]2cccc(-c3ccccc3)c2)c1)CCC[n+]1cccc(-c2ccccc2)c1 ... 5.5
c1ccc(CCCCC[n+]2cccc3ccccc32)c(CCCCC[n+]2cccc3ccccc32)c1 ... 10.9
Cc1cc[n+](CCC#Cc2ccc(C#CCC[n+]3ccc(C)c(C)c3)cc2)cc1C ... 10.6
Cc1cc[n+](CCCCc2ccc(CCCC[n+]3ccc(C)c(C)c3)cc2)cc1C ... 36.7
C(#Cc1cccc(C#CCCC[n+]2cccc3ccccc32)c1)CCC[n+]1cccc2ccccc21 ... 41.6
c1ccc2c[n+](CCCCCc3cc(CCCCC[n+]4ccc5ccccc5c4)cc(CCCCC[n+]4ccc5ccccc5c4)c3)ccc2c1 ... 6.9

The value of Activity measured for the molecule Cc1cc(C)c[n+](CCCCc2ccc(CCCC[n+]3cc(C)cc(C)c3)cc2)c1 turned out to be 97.1

The value of Activity measured for the molecule Cc1cc[n+](CCCCCc2cccc(CCCCC[n+]3ccc(C)c(C)c3)c2)cc1C turned out to be 62.7

The value of Activity measured for the molecule Cc1cc[n+](CCCCCc2cc(CCCCC[n+]3ccc(C)c(C)c3)c(CCCCC[n+]3ccc(C)c(C)c3)cc2CCCCC[n+]2ccc(C)c(C)c2)cc1C turned out to be 11

The value of Activity measured for the molecule c1ccc(CCCCC[n+]2ccc3ccccc3c2)c(CCCCC[n+]2ccc3ccccc3c2)c1 turned out to be 31.1

The value of Activity measured for the molecule CCCCc1ccc[n+](CCCCCc2cc(CCCCC[n+]3cccc(CCCC)c3)cc(CCCCC[n+]3cccc(CCCC)c3)c2)c1 turned out to be 16.1

The value of Activity measured for the molecule Cc1cc[n+](CCCCCc2cc(CCCCC[n+]3ccc(C)c(C)c3)cc(CCCCC[n+]3ccc(C)c(C)c3)c2)cc1C turned out to be 62.7

The value of Activity measured for the molecule Cc1cc[n+](CCCC#Cc2cc(C#CCCC[n+]3ccc(C)c(C)c3)c(C#CCCC[n+]3ccc(C)c(C)c3)cc2C#CCCC[n+]2ccc(C)c(C)c2)cc1C turned out to be 47.4

The value of Activity measured for the molecule Cc1cc(C)c[n+](CCCC#Cc2ccccc2C#CCCC[n+]2cc(C)cc(C)c2)c1 turned out to be 67.6
